Each record here notes measured MIC.
Tested on: Mycoplasma gallisepticum E-11
Assay: antibacterial activity against Mycoplasma
Type: cell-based
Details: Mycoplasmoides gallisepticum, E11; strain E-11, macrolide resistant; Eiken PPLO Medium; read-out: MIC
Endpoint: MIC (mg/L)

{"columns": ["Compound", "Tested system", "Measurement unit", "Test value"],
 "data": [
  ["CCC1OC(=O)CC(OC(C)=O)C(C)C(OC2OC(C)C(OC3CC(C)(O)C(OC(=O)C(O)c4ccccc4)C(C)O3)C(N(C)C)C2O)C(CC=O)CC(C)C(=O)C=CC(C)=CC1COC1OC(C)C(O)C(OC)C1OC (centres unmarked) [Compound 17]", "Mycoplasma gallisepticum E-11", "mg/L", 0.625],
  ["CCC1OC(=O)CC(O)C(C)C(OC2OC(C)C(OC3CC(C)(O)C(OC(=O)CCc4ccccc4)C(C)O3)C(N(C)C)C2O)C(CC=O)CC(C)C(=O)C=CC(C)=CC1COC1OC(C)C(O)C(OC)C1OC (stereo not drawn) [Compound 24, 4\"-β-phenylpropionyltylosin]", "Mycoplasma gallisepticum E-11", "mg/L", 0.313],
  ["CCC1OC(=O)CC(OC(C)=O)C(C)C(OC2OC(C)C(OC3CC(C)(O)C(OC(=O)CSCc4ccccc4)C(C)O3)C(N(C)C)C2O)C(CC=O)CC(C)C(=O)C=CC(C)=CC1COC1OC(C)C(O)C(OC)C1OC (centres unmarked) [Compound 38, 3-acetyl-4\"-benzylthioacetyltylosin]", "Mycoplasma gallisepticum E-11", "mg/L", 0.078],
  ["CCC1OC(=O)CC(O)C(C)C(OC2OC(C)C(OC3CC(C)(O)C(OC(=O)CS(=O)(=O)c4ccccc4)C(C)O3)C(N(C)C)C2O)C(CC=O)CC(C)C(=O)C=CC(C)=CC1COC1OC(C)C(O)C(OC)C1OC (centres unmarked) [Compound 43, 4\"-benzenesulfonylacetyltylosin]", "Mycoplasma gallisepticum E-11", "mg/L", 0.078],
  ["CCC1OC(=O)CC(O)C(C)C(OC2OC(C)C(OC3CC(C)(O)C(OC(=O)CCC4CCCCC4)C(C)O3)C(N(C)C)C2O)C(CC=O)CC(C)C(=O)C=CC(C)=CC1COC1OC(C)C(O)C(OC)C1OC (stereo not drawn) [Compound 29, 4\"-β-cyclohexylpropionyl tylosin]", "Mycoplasma gallisepticum E-11", "mg/L", 0.625],
  ["CCC1OC(=O)CC(OC(C)=O)C(C)C(OC2OC(C)C(OC3CC(C)(O)C(OC(=O)CN(C(C)=O)c4ccccc4)C(C)O3)C(N(C)C)C2O)C(CC=O)CC(C)C(=O)C=CC(C)=CC1COC1OC(C)C(O)C(OC)C1OC (centres unmarked) [Compound 32]", "Mycoplasma gallisepticum E-11", "mg/L", 0.313],
  ["CCC1OC(=O)CC(O)C(C)C(OC2OC(C)C(OC3CC(C)(O)C(OC(=O)CSc4ccccc4)C(C)O3)C(N(C)C)C2O)C(CC=O)CC(C)C(=O)C=CC(C)=CC1COC1OC(C)C(O)C(OC)C1OC (centres unmarked) [Compound 34, 4\"-phenylthioacetyltylosin]", "Mycoplasma gallisepticum E-11", "mg/L", 0.078],
  ["CCC1OC(=O)CC(O)C(C)C(OC2OC(C)C(OC3CC(C)(O)C(OC(=O)CSc4ccncc4)C(C)O3)C(N(C)C)C2O)C(CC=O)CC(C)C(=O)C=CC(C)=CC1COC1OC(C)C(O)C(OC)C1OC (centres unmarked) [Compound 41, 4\"-(4-pyridyl)thioacetyltylosin]", "Mycoplasma gallisepticum E-11", "mg/L", 0.313]
]}
